Where do the numbers come from? From the supplement of paper PMC12338614.

B1: library; numbered along this chain (parent)
chain: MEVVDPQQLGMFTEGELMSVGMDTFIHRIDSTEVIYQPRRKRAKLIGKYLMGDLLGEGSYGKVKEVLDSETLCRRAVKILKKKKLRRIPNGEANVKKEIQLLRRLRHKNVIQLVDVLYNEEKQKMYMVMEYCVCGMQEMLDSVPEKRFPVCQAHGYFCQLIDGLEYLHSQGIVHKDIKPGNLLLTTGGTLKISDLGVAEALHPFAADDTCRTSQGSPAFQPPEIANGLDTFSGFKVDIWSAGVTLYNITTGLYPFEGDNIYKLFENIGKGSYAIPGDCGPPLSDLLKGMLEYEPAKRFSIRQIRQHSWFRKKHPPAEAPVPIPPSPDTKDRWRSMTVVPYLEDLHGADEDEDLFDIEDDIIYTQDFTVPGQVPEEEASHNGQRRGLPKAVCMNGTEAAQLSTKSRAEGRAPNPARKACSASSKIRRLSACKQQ

- Variants of: B1
- METHOD SUMMARY: STK11 functional score (HeLa growth suppression), rescaled enrichment; synonymous median = 1, nonsense median = 0 (normalised score)
- APPLIED CONDITIONS: with HeLa; variant type: missense
QUANTITY MEASURED: STK11 functional score

- VARIANT DESCRIPTION: "L290Q"
  OBS VALUE: -0.237
- VARIANT DESCRIPTION: "I46E"
  OBS VALUE: 1.57
- VARIANT DESCRIPTION: "L160P"
  OBS VALUE: -0.129
- VARIANT DESCRIPTION: "G394K"
  OBS VALUE: 1.6
- VARIANT DESCRIPTION: "L101M"
  OBS VALUE: 1.62
- VARIANT DESCRIPTION: "L182R"
  OBS VALUE: 0.129
- VARIANT DESCRIPTION: "A429T"
  OBS VALUE: 0.896
- VARIANT DESCRIPTION: "G251C"
  OBS VALUE: -0.00733
- VARIANT DESCRIPTION: "M127S"
  OBS VALUE: 0.857
- VARIANT DESCRIPTION: "E121P"
  OBS VALUE: 1.66
- VARIANT DESCRIPTION: "E130G"
  OBS VALUE: 0.45
- VARIANT DESCRIPTION: "T186P"
  OBS VALUE: 1.52
- VARIANT DESCRIPTION: "K312N"
  OBS VALUE: 1.58
- VARIANT DESCRIPTION: "S232W"
  OBS VALUE: 0.692
- VARIANT DESCRIPTION: "V116C"
  OBS VALUE: 0.415
- VARIANT DESCRIPTION: "G242H"
  OBS VALUE: 0.0155
- VARIANT DESCRIPTION: "D348N"
  OBS VALUE: 0.723
- VARIANT DESCRIPTION: "E349Q"
  OBS VALUE: 1.16
- VARIANT DESCRIPTION: "K48L"
  OBS VALUE: 1.3
- VARIANT DESCRIPTION: "Y362R"
  OBS VALUE: 1.39
- VARIANT DESCRIPTION: "D350R"
  OBS VALUE: 1.61
- VARIANT DESCRIPTION: "G270Q"
  OBS VALUE: 1.16
- VARIANT DESCRIPTION: "Y272T"
  OBS VALUE: 1.44
- VARIANT DESCRIPTION: "V368P"
  OBS VALUE: 1.46
- VARIANT DESCRIPTION: "V66Q"
  OBS VALUE: 1.08
- VARIANT DESCRIPTION: "A398Y"
  OBS VALUE: 1.23
- VARIANT DESCRIPTION: "P254G"
  OBS VALUE: 0.298
- VARIANT DESCRIPTION: "G163P"
  OBS VALUE: -0.013
- VARIANT DESCRIPTION: "L286Y"
  OBS VALUE: 1.36
- VARIANT DESCRIPTION: "C391N"
  OBS VALUE: 0.483
- VARIANT DESCRIPTION: "I260R"
  OBS VALUE: 1.66
- VARIANT DESCRIPTION: "K191F"
  OBS VALUE: 0.589
- VARIANT DESCRIPTION: "S31F"
  OBS VALUE: 0.829
- VARIANT DESCRIPTION: "L50I"
  OBS VALUE: 1.62
- VARIANT DESCRIPTION: "G135D"
  OBS VALUE: 1.06
- VARIANT DESCRIPTION: "S19F"
  OBS VALUE: 0.945
- VARIANT DESCRIPTION: "P179H"
  OBS VALUE: -0.0435
- VARIANT DESCRIPTION: "C210L"
  OBS VALUE: 0.435
- VARIANT DESCRIPTION: "P149A"
  OBS VALUE: 1.18
- VARIANT DESCRIPTION: "C278G"
  OBS VALUE: 1.08
- VARIANT DESCRIPTION: "T32V"
  OBS VALUE: 1.41
- VARIANT DESCRIPTION: "G381L"
  OBS VALUE: 1.24
- VARIANT DESCRIPTION: "P89Q"
  OBS VALUE: 1.4
- VARIANT DESCRIPTION: "N259D"
  OBS VALUE: 1.12
- VARIANT DESCRIPTION: "T328D"
  OBS VALUE: 1.5
- VARIANT DESCRIPTION: "G227D"
  OBS VALUE: 1.13
